Hello, the source for this data is patent US10219516B2, in case you need it.

The following compounds are listed with their measured pest or weed control at 50 µg/cm2 values.
Test system: Cabbage Looper (Trichoplusia ni, TRIPNI)
protocol-description: Bioassay on Cabbage Looper (CL), 128-well diet tray assay
Type: in vivo
reported-conditions: Trichoplusia ni; Cabbage Looper, 128-well diet tray assay; read-out: CL rating

- compound: "N#Cc1ccc(NC(=O)c2cc(NC(=O)[C@H]3[C@H](c4cc(Cl)cc(Cl)c4)C3(Cl)Cl)ccc2Cl)nc1 (relative stereo)"
  pest or weed control at 50 µg/cm2: "50 to 100%"

input: Consider the compound C=C(F)c1cc(Cl)cc([C@H]2[C@H](C(=O)Nc3ccc(Cl)c(C(=O)Nc4ccc(F)cc4C#N)c3)C2(Cl)Cl)c1 (relative stereo) and give its measured pest or weed control at 50 µg/cm2.
output: 50 to 100%

input: Consider the compound O=C(Cc1ccccc1)Nc1ccc(NC(=O)c2cc(NC(=O)[C@H]3[C@H](c4cc(Cl)cc(Cl)c4)C3(Cl)Cl)ccc2Cl)cc1 (relative stereo) and give its measured pest or weed control at 50 µg/cm2.
output: 50 to 100%

* * *

System: Cabbage Looper (Trichoplusia ni, TRIPNI)
protocol-description: Bioassay on Cabbage Looper (CL), 128-well diet tray assay
Assay type: in vivo
reported-conditions: Trichoplusia ni; Cabbage Looper, 128-well diet tray assay; read-out: CL rating
measured-endpoint: pest or weed control at 50 µg/cm2

Worked set:
- molecule: "O=C(Nc1ccc(S(=O)(=O)C(F)(F)F)cc1)c1cc(NC(=O)[C@H]2[C@H](c3cc(Cl)cc(Cl)c3)C2(Cl)Cl)ccc1Cl (relative stereo)"
  pest or weed control at 50 µg/cm2: "50 to 100%"
- molecule: "O=C(Nc1cnc2[nH]ccc2c1)c1cc(NC(=O)[C@H]2[C@H](c3cc(Cl)cc(Cl)c3)C2(Cl)Cl)ccc1Cl (relative stereo)"
  pest or weed control at 50 µg/cm2: "50 to 100%"
- molecule: "COCC(=O)Nc1ccc(NC(=O)c2cc(NC(=O)[C@H]3[C@H](c4cc(Cl)cc(Cl)c4)C3(Cl)Cl)ccc2Cl)cc1 (relative stereo)"
  pest or weed control at 50 µg/cm2: "50 to 100%"
- molecule: "Nc1ccc2c(c1)CN(C(=O)c1cc(NC(=O)[C@H]3[C@H](c4cc(Cl)cc(Cl)c4)C3(Cl)Cl)ccc1Cl)C2 (relative stereo)"
  pest or weed control at 50 µg/cm2: "50 to 100%"
- molecule: "CN(C(=O)c1cc(NC(=O)[C@H]2[C@H](c3ccc(F)c(Cl)c3)C2(Cl)Cl)ccc1Cl)c1ccc(F)cc1 (relative stereo)"
  pest or weed control at 50 µg/cm2: "50 to 100%"
- molecule: "O=C(Nc1cnc(F)c(Br)c1)c1cc(NC(=O)[C@H]2[C@H](c3cc(Cl)cc(Cl)c3)C2(Cl)Cl)ccc1Cl (relative stereo)"
  pest or weed control at 50 µg/cm2: "50 to 100%"
- molecule: "CN(C(=O)c1cc(NC(=O)[C@H]2[C@H](c3cc(F)cc(Cl)c3)C2(Cl)Cl)ccc1Cl)c1ccc(F)cc1 (relative stereo)"
  pest or weed control at 50 µg/cm2: "50 to 100%"
- molecule: "O=C(Nc1cc2cc[nH]c2cn1)c1cc(NC(=O)[C@H]2[C@H](c3cc(Cl)cc(Cl)c3)C2(Cl)Cl)ccc1Cl (relative stereo)"
  pest or weed control at 50 µg/cm2: "50 to 100%"
- molecule: "CCn1ccc2cc(NC(=O)c3cc(NC(=O)[C@H]4[C@H](c5cc(Cl)cc(Cl)c5)C4(Cl)Cl)ccc3Cl)ccc21 (relative stereo)"
  pest or weed control at 50 µg/cm2: "50 to 100%"
- molecule: "COc1ccc(NC(=O)c2cc(NC(=O)[C@H]3[C@H](c4ccc(F)c(Cl)c4)C3(Cl)Cl)ccc2Cl)c(Cl)n1 (relative stereo)"
  pest or weed control at 50 µg/cm2: "50 to 100%"

input: Consider the molecule Nc1c(F)ccc(NC(=O)c2cc(NC(=O)C3C(c4ccc(F)c(Br)c4)C3(Cl)Cl)ccc2Cl)c1F (stereo not drawn) and give its measured pest or weed control at 50 µg/cm2.
output: 50 to 100%

input: Consider the molecule O=C1Cc2cc(NC(=O)c3cc(NC(=O)[C@H]4[C@H](c5cc(Cl)cc(Cl)c5)C4(Cl)Cl)ccc3Cl)ccc2N1 (relative stereo) and give its measured pest or weed control at 50 µg/cm2.
output: 50 to 100%
